- procedure-text: thermodynamic (Steady State Affinity) binding analysis: A subset of compounds was further characterized to determine dissociation constants using thermodynamic (Steady State Affinity) binding analysis.
pKd: −log10 of the molar value.
parameter-measured: pKd

Here is how some molecules turned out for pKd.
molecule: CO[C@H]1[C@@H](O)[C@H](COP(=O)(O)O)O[C@@H]1n1c[n+](CCOc2ccc(Cl)cc2)c2c([O-])nc(N)nc21
pKd: 6.80
--
molecule: Nc1nc([O-])c2c(n1)n([C@H]1O[C@@H](COP(=O)(O)O)[C@H](O)[C@@H]1O)c[n+]2Cc1ccccc1CS(=O)(=O)c1ccccc1
pKd: 7.52
--
molecule: Nc1nc([O-])c2c(n1)n([C@H]1O[C@@H](COP(=O)(O)O)[C@H](O)[C@@H]1O)c[n+]2Cc1cccc(OCc2ccccc2)c1
pKd: 6.24
--
molecule: Nc1nc([O-])c2c(n1)n([C@H]1O[C@@H](COP(=O)(O)O)[C@H](O)[C@@H]1O)c[n+]2Cc1ccc(-c2ccccc2)cc1
pKd: 6.52

(1) Nc1nc([O-])c2c(n1)n([C@H]1O[C@@H](COP(=O)(O)O)[C@H](O)[C@@H]1O)c[n+]2Cc1cccc(Oc2ccccc2)c1
(2) Nc1nc([O-])c2c(n1)n([C@H]1O[C@@H](COP(=O)(O)O)[C@H](O)[C@@H]1O)c[n+]2Cc1ccc(-c2ccccc2F)cc1
(3) Nc1nc([O-])c2c(n1)n([C@H]1O[C@@H](COP(=O)(O)O)[C@H](O)[C@@H]1O)c[n+]2Cc1ccc(-c2ccccc2)c(Cl)c1
Task: Sort these molecules on pKd so the largest reading comes first. Labels, requested order.
Result: 3, 1, 2

The reported measurements were obtained from ChEMBL document CHEMBL5727817.
